Attribute: growth AUC
System: Bacteroides thetaiotaomicron
Experiment: growth AUC relative to DMSO control (median of replicates) (fraction); higher = more growth (less inhibition), active = hit call of the paper
Conditions: 20 µM; 24 h
Keep it simple and answer with nothing but the number.

Challenge: Recorded growth AUC for `O=C1CCc2cccc3c2N1CC3` , please?
Response given: 0.883

Challenge: Recorded growth AUC for `CCCCCCCCn1sccc1=O` , please?
Response given: 0.689

Challenge: Recorded growth AUC for `N#Cc1cc(Br)c(O)c(Br)c1` , please?
Response given: 0.997

Challenge: Recorded growth AUC for `C/C(=N/Nc1nc(C)cc(C)n1)c1ccccc1C` , please?
Response given: 0.963

Challenge: Recorded growth AUC for `COC(=O)COc1cc(Cl)c(Cl)cc1Cl` , please?
Response given: 0.97

Continuing:
Challenge: Recorded growth AUC for `CCCN(CCC)c1c([N+](=O)[O-])cc(S(N)(=O)=O)cc1[N+](=O)[O-]` , please?
Response given: 0.948

----------
System: Bacteroides stercoris
Test: growth AUC relative to DMSO control (median of replicates) (fraction); higher = more growth (less inhibition), active = hit call of the paper
Details: 20 µM; 24 h
Attribute: growth AUC
Keep it simple and answer with nothing but the number.

Challenge: Record COP(=O)(OC)C(O)C(Cl)(Cl)Cl (stereo not given) : what is its growth AUC with Bacteroides stercoris?
Response given: 1.01

Continuing:
Challenge: Record Fc1ccc(C2(Cn3cncn3)OC2c2ccccc2Cl)cc1 (stereo not given) : what is its growth AUC with Bacteroides stercoris?
Response given: 1.02

Challenge: Record `CN(C)NC(=O)CCC(=O)O` : what is its growth AUC with Bacteroides stercoris?
Response given: 1.01

Challenge: Record `COP(=O)(OC)O/C(=C/Br)c1ccc(Cl)cc1Cl` : what is its growth AUC with Bacteroides stercoris?
Response given: 1.02

Challenge: Record OC(Cn1cncn1)(c1ccc(F)cc1)c1ccccc1F (stereo not given) : what is its growth AUC with Bacteroides stercoris?
Response given: 1

----------
Attribute: growth AUC
Tested on: Escherichia coli ED1a
Experiment: growth AUC relative to DMSO control (median of replicates) (fraction); higher = more growth (less inhibition), active = hit call of the paper
Details: 20 µM; 24 h
Keep it simple and answer with nothing but the number.

Challenge: Recorded growth AUC for `COc1nc(NC(C)C)nc(NC(C)C)n1` , please?
Response given: 1.01

Challenge: Recorded growth AUC for CCOP(=S)(OCC)SCS(=O)C(C)(C)C (stereo unspecified) , please?
Response given: 1.04

Challenge: Recorded growth AUC for `O=NN(CCO)CCO` , please?
Response given: 0.994

Challenge: Recorded growth AUC for COP(=S)(NC(C)C)Oc1ccccc1C(=O)OC(C)C (stereo unspecified) , please?
Response given: 1.02

Challenge: Recorded growth AUC for `CCCCc1c(C)nc(NCC)nc1OS(=O)(=O)N(C)C` , please?
Response given: 0.987

// moving on: another record for growth AUC
Challenge: Recorded growth AUC for `S=C1NCCN1` , please?
Response given: 1.01

----------
Tested on: Bifidobacterium longum subsp. longum
Experiment: growth AUC relative to DMSO control (median of replicates) (fraction); higher = more growth (less inhibition), active = hit call of the paper
Settings: 20 µM; 24 h
Recorded Endpoint: growth AUC
Keep it simple and answer with nothing but the number.

Challenge: Recorded growth AUC for `O=[N+]([O-])c1ccc(Oc2ccc(Cl)cc2Cl)cc1` , please?
Response given: 0.972

Continuing:
Challenge: Recorded growth AUC for CCC1COC(Cn2cncn2)(c2ccc(Cl)cc2Cl)O1 (stereo not drawn) , please?
Response given: 0.976

Challenge: Recorded growth AUC for `CCOP(=S)(OCC)Oc1nc(Cl)c(Cl)cc1Cl` , please?
Response given: 0.943

Challenge: Recorded growth AUC for `CCCN(CCC)c1c([N+](=O)[O-])cc(S(C)(=O)=O)cc1[N+](=O)[O-]` , please?
Response given: 0.948

Challenge: Recorded growth AUC for `CCOP(=S)(OCC)SCSC(C)(C)C` , please?
Response given: 1.13

Challenge: Recorded growth AUC for Clc1ccc(C2(Cn3cncn3)CC(Br)CO2)c(Cl)c1 (stereo not drawn) , please?
Response given: 0.896

Challenge: Recorded growth AUC for `CCCCN(CC)C(=O)SCCC` , please?
Response given: 0.983

Challenge: Recorded growth AUC for `c1ccc2c(c1)ccc1c3ccccc3sc21` , please?
Response given: 1.25
